# experimental target: NMDA receptor (NR), channel binding site labeled with [^3H]MK-801 (Rattus norvegicus, UniProt P35439+Q00959+Q00960)
# Sequence (Q00959 23-1464, other chains not shown): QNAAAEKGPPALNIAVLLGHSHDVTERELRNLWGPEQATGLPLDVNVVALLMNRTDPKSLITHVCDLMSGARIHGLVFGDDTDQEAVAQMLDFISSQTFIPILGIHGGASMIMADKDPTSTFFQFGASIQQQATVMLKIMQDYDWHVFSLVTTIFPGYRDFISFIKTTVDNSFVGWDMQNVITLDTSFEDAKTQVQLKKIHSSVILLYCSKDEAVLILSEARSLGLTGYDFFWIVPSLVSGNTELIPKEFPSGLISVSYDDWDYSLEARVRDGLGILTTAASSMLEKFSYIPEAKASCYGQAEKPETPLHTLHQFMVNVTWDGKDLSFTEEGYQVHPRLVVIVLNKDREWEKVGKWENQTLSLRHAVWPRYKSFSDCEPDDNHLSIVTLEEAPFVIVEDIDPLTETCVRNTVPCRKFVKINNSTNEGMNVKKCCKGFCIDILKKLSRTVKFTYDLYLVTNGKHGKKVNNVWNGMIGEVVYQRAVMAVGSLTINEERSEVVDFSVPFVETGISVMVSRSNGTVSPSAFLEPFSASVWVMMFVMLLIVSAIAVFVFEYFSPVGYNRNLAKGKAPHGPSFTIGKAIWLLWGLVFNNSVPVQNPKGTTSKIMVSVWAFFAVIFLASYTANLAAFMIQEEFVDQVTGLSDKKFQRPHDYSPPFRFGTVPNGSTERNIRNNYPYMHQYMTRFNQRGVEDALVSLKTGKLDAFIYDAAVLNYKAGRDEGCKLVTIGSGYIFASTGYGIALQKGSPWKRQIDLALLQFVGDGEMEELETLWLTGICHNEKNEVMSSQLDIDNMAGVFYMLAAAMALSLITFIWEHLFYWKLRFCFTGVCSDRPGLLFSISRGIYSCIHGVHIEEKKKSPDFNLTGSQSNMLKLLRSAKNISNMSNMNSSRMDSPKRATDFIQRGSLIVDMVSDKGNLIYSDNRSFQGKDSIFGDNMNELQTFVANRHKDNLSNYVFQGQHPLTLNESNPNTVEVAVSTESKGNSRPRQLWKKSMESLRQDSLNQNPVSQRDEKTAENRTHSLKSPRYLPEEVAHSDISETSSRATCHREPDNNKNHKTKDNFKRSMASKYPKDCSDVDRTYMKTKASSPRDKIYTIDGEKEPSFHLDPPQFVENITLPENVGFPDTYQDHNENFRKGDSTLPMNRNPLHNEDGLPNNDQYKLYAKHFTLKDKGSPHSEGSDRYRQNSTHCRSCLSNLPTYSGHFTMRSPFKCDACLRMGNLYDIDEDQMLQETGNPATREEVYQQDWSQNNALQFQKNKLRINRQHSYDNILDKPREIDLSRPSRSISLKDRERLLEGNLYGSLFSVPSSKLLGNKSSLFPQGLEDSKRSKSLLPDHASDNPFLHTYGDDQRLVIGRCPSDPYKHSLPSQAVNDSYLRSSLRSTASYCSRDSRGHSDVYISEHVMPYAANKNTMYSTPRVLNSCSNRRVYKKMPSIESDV
# Sequence (Q00960 27-1482, other chains not shown): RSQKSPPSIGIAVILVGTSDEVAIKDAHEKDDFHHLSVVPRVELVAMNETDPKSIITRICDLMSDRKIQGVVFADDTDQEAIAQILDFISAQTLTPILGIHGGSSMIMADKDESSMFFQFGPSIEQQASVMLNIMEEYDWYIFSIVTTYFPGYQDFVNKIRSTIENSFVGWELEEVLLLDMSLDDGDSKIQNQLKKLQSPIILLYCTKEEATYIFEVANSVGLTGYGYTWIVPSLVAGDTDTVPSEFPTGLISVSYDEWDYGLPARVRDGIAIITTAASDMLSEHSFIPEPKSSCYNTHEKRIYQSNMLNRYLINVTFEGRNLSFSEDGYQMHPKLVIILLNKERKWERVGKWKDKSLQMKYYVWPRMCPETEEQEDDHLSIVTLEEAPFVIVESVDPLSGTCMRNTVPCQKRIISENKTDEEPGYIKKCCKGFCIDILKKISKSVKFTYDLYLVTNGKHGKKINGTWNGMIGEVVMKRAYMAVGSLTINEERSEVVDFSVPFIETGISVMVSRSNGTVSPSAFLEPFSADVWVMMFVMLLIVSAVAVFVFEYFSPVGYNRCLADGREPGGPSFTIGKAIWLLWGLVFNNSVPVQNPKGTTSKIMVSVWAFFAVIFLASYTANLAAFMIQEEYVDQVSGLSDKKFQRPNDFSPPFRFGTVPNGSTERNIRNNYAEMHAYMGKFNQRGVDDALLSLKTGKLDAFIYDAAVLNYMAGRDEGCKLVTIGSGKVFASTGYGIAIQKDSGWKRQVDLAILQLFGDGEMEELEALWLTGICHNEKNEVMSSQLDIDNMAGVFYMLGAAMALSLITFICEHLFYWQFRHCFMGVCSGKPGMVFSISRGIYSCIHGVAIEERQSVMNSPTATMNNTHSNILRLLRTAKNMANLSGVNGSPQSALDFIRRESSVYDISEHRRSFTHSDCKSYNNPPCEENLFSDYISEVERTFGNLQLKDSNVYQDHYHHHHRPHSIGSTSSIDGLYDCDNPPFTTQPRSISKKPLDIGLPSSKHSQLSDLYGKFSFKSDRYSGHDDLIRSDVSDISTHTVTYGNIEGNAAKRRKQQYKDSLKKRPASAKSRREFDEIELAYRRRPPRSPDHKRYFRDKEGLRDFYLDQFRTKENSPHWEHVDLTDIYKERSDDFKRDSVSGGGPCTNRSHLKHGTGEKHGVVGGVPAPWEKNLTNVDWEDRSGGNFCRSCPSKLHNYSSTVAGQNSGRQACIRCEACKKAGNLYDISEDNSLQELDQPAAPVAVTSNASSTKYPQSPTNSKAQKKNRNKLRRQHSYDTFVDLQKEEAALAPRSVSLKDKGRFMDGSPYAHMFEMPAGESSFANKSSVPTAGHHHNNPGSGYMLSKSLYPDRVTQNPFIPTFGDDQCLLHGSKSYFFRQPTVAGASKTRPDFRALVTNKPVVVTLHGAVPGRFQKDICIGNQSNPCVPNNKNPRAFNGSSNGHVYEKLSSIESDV
# assay explanation: Inhibition of [^3H]MK-801 binding to rat cortical membranes
# assay conditions: mean ratio; spermine sensitivity
This section presents compounds with their documented [^3H]MK-801 Ratio IC50 (30 µM spm)/IC50 (no spm) values.

                                   compound  observed_value
0  N=C(N)c1ccc(SCCOCCSc2ccc(C(=N)N)cc2)cc1 [compound 5]  20.2 ± 6.1 (3)

Lab note: next compound to report on.
**Query** Could you share which [^3H]MK-801 Ratio IC50 (30 µM spm)/IC50 (no spm) value was measured for N=C(N)c1ccc(NCCCCCCCNc2ccc(C(=N)N)cc2)cc1 [compound 43] ?
**Result** 5.37 (2)

Values were extracted from paper PMC4910395.
